# credit: patent US20190201491A1

- TESTED_ON: beta Klotho and FGFR1c (Fibroblast Growth Factor Receptor isoform 1c) expressed on the cell surface of a proprietary stable cell line (HEK293)
- MEASUREMENT_DESCRIPTION: cell-based or functional assay
[ ]: non-standard residue; d: D form. Phe(4-Ac) = CC(=O)c1ccc(C[C@H](N)C(=O)O)cc1
MEASUREMENT_NAME: Emax (%) relative to WT bFGF-21, Elk1 luciferase reporter assay

>>> result("bFGF-21-Q108-30KPEG (ligand) HPIPDSSPLLQFGGQVRQRYLYTDDAQETEAHLEIRADGTVVGAARQSPESLLELKALKPGVIQILGVKTSRFLCQGPDGKLYGSLHFDPKACSFRELLLEDGYNVY[Phe(4-Ac)](PEG 30 kDa)SETLGLPLRLPPQRSSNRDPAPRGPARFLPLPGLPAAPPDPPGILAPEPPDVGSSDPLSMVGPSYGRSPSYTS")
"73%"
